The reported numbers originate from ChEMBL document CHEMBL3792377.

Some molecules, each annotated with its measured Fu.
tested on: Plasma; assay: Fraction unbound in rat plasma by equilibrium dialysis method; type: ADME, cell-free
Please state the value as a number alone, without comment.

Guide cases for Fu, answers given:
>>> readout_value("Fc1ccc2c(CN3CCO[C@H](COc4cccc(Cl)n4)C3)c[nH]c2c1")
0.016
>>> readout_value("Cn1ncc2cc(CN3CCO[C@H](COc4ccccc4)C3)ccc21")
0.074

Find the recorded Fu belonging to Clc1ccc(CN2CCO[C@H](CSc3ccccc3)C2)cc1 and report it.
0.005

Here is the next molecule: c1ccc(OC[C@@H]2CN(Cc3ccc4[nH]ccc4c3)CCO2)cc1
0.069

Here is the next molecule: Fc1cc(CN2CCO[C@H](COc3ccccc3)C2)ccc1Cl
0.012

Here is the next molecule: COc1ccc2c(CN3CCO[C@H](COc4ccccc4)C3)c[nH]c2c1
0.075

Here is the next molecule: Fc1cc(CN2CCO[C@H](COc3ccccc3)C2)ccc1C(F)(F)F
0.007

Here is the next molecule: Fc1ccc2c(CN3CCO[C@H](COc4ccccc4)C3)c[nH]c2c1
0.047

Here is the next molecule: c1ccc(OC[C@@H]2CN(Cc3cn4ccccc4n3)CCO2)cc1
0.215

Here is the next molecule: COc1ccc(CN2CCO[C@H](COc3ccccc3)C2)cc1F
0.037

Here is the next molecule: Clc1ccc2c(CN3CCO[C@H](COc4ccccc4)C3)c[nH]c2c1
0.01
